// values below are reported IC50
Target: acid ceramidase (hACR) (Homo sapiens, UniProt Q13510)
Construct: expressed in transfected cells
Sequence (Q13510 22-395): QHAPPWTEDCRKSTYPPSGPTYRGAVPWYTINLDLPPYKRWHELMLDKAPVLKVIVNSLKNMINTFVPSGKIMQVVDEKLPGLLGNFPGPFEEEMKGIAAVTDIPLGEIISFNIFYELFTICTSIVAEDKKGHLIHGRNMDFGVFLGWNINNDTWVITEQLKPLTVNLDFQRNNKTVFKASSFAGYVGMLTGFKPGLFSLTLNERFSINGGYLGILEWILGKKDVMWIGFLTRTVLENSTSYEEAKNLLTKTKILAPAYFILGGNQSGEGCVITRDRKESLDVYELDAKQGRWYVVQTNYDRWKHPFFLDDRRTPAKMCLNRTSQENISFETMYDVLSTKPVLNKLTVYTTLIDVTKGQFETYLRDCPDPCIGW
Assay: Acid ceramidase inhibition, biochemical fluorescent assay with cell lysates overexpressing acid ceramidase (substrate Rbm14-12)
Conditions: cell lysate, 1 hr preincubation at RT, pH 4.5, Rbm14-12 6.3 μM; read-out: IC50 hACR

Some entries whose results are on file:
COc1nc(C)cn1C(=O)NCCCc1ccccc1; < 200 nM
O=C(NCCc1ccccc1)n1cnc(-c2ccncc2)c1; > 1000 nM

Query: GET /values?readout=IC50&system=acid ceramidase (hACR) (Homo sapiens, UniProt Q13510)&item= O=C(NCCC1CC1)n1cc(-c2cccnc2)nc1OC1CC1
Result: > 1000 nM

Query: GET /values?readout=IC50&system=acid ceramidase (hACR) (Homo sapiens, UniProt Q13510)&item= COc1nc(C2CCCO2)cn1C(=O)NCCC(C)C (stereo not shown)
Result: > 1000 nM

Query: GET /values?readout=IC50&system=acid ceramidase (hACR) (Homo sapiens, UniProt Q13510)&item= COc1nccn1C(=O)NCCCC(C)C
Result: < 200 nM

Query: GET /values?readout=IC50&system=acid ceramidase (hACR) (Homo sapiens, UniProt Q13510)&item= Cc1cn(C(=O)NC2CCC(F)(F)CC2)c(Oc2ccc(C#N)cc2)n1
Result: < 200 nM

Query: GET /values?readout=IC50&system=acid ceramidase (hACR) (Homo sapiens, UniProt Q13510)&item= CCc1cn(C(=O)NCCC(C)C)c(OC)n1
Result: 200 to 1000 nM

Query: GET /values?readout=IC50&system=acid ceramidase (hACR) (Homo sapiens, UniProt Q13510)&item= Cc1cn(C(=O)NC2CCC(F)(F)CC2)c(Oc2cccc(C3CN(C)C3)c2)n1
Result: 200 to 1000 nM

Query: GET /values?readout=IC50&system=acid ceramidase (hACR) (Homo sapiens, UniProt Q13510)&item= COc1nccn1C(=O)NCCc1ccccc1
Result: < 200 nM

Query: GET /values?readout=IC50&system=acid ceramidase (hACR) (Homo sapiens, UniProt Q13510)&item= O=C(NCCCC1(C(F)(F)F)CC1)n1ccnc1Oc1ccccc1
Result: < 200 nM

* * *

Molecular target: acid ceramidase (hACR) (Homo sapiens, UniProt Q13510)
Construct: expressed in transfected cells
Experiment: Acid ceramidase inhibition, biochemical fluorescent assay with cell lysates overexpressing acid ceramidase (substrate Rbm14-12)
Details: cell lysate, 1 hr preincubation at RT, pH 4.5, Rbm14-12 6.3 μM; read-out: IC50 hACR
pIC50: −log10 of the molar value.
// values below are reported pIC50

Some entries whose results are on file:
COc1nc(C)cn1C(=O)NCCCC1(C(F)(F)F)CC1 [Example 145]; > 6.70
COc1nc(Br)cn1C(=O)NCCCC(F)(F)F [Example 184]; > 6.70
COc1ccc(-c2cn(C(=O)NCCC3(C(F)(F)F)CC3)c(OC)n2)cn1 [Example 94]; 6.00 to 6.70
COc1nc(-c2ccccc2)cn1C(=O)NCCc1ccccc1 [Example 8]; 6.00 to 6.70
COc1nc(C(C)(C)C)cn1C(=O)NC1CCC(F)(F)CC1 [Example 112]; 6.00 to 6.70

Query: Entry COc1nc(C(C)(C)C)cn1C(=O)NC1CC1 [Example 113] has what pIC50?
Result: 6.00 to 6.70

Query: Entry COc1nc(-c2ccccc2)cn1C(=O)NC1CCCC(F)(F)C1 (stereo not drawn) [Example 158] has what pIC50?
Result: 6.00 to 6.70

Query: Entry COc1nc(C(C)(C)C)cn1C(=O)NC1CCOCC1 [Example 114] has what pIC50?
Result: 6.00 to 6.70

Query: Entry COc1nc(C2CCCC2)cn1C(=O)NCCCOc1ccccc1 [Example 105] has what pIC50?
Result: > 6.70

Query: Entry COc1nccn1C(=O)NCCCc1ccccc1 [Example 124] has what pIC50?
Result: > 6.70
